Molecular target: GSK3b (Homo sapiens (Human), UniProt P49841)
Experiment: Broad kinase panel screening
Type: biochemical
Settings: read-out: IC50
quantity name: IC50 (nM)
Write the number in nM without appending the unit.

Prompt: Quick one: IC50 for CN(C)CCC1CCN(CCS(=O)(=O)c2ccc(-c3cnc(N)c(C(=O)Nc4ccccc4)n3)cc2)CC1 ?
Response: 63

----------
Target: GSK3a (Homo sapiens (Human), UniProt P49840)
Assay: Broad kinase panel screening
Assay type: biochemical
Conditions: read-out: IC50 nM
quantity name: IC50 (nM)
Write the number in nM without appending the unit.

Prompt: Give IC50 (GSK3a (Homo sapiens (Human), UniProt P49840)) of the following compound: CN(C)CCC1CCN(CCS(=O)(=O)c2ccc(-c3cnc(N)c(C(=O)Nc4ccccc4)n3)cc2)CC1 [Compound 5]
Response: 5.73

----------
Biological target: ALK2/ACVR1 (Homo sapiens (Human), UniProt Q04771)
Assay: Broad kinase panel screening
quantity name: pIC50
Entry type: numeric. Quantity: pIC50, the -log10 of concentration in molar units.

Prompt: Quick one: pIC50 for CN(C)CCC1CCN(CCS(=O)(=O)c2ccc(-c3cnc(N)c(C(=O)Nc4ccccc4)n3)cc2)CC1 [Compound 5] ?
Response: 7.78

----------
Molecular target: ATR/ATRIP(h) (Homo sapiens (Human))
Sequence (Q13535 whole entry): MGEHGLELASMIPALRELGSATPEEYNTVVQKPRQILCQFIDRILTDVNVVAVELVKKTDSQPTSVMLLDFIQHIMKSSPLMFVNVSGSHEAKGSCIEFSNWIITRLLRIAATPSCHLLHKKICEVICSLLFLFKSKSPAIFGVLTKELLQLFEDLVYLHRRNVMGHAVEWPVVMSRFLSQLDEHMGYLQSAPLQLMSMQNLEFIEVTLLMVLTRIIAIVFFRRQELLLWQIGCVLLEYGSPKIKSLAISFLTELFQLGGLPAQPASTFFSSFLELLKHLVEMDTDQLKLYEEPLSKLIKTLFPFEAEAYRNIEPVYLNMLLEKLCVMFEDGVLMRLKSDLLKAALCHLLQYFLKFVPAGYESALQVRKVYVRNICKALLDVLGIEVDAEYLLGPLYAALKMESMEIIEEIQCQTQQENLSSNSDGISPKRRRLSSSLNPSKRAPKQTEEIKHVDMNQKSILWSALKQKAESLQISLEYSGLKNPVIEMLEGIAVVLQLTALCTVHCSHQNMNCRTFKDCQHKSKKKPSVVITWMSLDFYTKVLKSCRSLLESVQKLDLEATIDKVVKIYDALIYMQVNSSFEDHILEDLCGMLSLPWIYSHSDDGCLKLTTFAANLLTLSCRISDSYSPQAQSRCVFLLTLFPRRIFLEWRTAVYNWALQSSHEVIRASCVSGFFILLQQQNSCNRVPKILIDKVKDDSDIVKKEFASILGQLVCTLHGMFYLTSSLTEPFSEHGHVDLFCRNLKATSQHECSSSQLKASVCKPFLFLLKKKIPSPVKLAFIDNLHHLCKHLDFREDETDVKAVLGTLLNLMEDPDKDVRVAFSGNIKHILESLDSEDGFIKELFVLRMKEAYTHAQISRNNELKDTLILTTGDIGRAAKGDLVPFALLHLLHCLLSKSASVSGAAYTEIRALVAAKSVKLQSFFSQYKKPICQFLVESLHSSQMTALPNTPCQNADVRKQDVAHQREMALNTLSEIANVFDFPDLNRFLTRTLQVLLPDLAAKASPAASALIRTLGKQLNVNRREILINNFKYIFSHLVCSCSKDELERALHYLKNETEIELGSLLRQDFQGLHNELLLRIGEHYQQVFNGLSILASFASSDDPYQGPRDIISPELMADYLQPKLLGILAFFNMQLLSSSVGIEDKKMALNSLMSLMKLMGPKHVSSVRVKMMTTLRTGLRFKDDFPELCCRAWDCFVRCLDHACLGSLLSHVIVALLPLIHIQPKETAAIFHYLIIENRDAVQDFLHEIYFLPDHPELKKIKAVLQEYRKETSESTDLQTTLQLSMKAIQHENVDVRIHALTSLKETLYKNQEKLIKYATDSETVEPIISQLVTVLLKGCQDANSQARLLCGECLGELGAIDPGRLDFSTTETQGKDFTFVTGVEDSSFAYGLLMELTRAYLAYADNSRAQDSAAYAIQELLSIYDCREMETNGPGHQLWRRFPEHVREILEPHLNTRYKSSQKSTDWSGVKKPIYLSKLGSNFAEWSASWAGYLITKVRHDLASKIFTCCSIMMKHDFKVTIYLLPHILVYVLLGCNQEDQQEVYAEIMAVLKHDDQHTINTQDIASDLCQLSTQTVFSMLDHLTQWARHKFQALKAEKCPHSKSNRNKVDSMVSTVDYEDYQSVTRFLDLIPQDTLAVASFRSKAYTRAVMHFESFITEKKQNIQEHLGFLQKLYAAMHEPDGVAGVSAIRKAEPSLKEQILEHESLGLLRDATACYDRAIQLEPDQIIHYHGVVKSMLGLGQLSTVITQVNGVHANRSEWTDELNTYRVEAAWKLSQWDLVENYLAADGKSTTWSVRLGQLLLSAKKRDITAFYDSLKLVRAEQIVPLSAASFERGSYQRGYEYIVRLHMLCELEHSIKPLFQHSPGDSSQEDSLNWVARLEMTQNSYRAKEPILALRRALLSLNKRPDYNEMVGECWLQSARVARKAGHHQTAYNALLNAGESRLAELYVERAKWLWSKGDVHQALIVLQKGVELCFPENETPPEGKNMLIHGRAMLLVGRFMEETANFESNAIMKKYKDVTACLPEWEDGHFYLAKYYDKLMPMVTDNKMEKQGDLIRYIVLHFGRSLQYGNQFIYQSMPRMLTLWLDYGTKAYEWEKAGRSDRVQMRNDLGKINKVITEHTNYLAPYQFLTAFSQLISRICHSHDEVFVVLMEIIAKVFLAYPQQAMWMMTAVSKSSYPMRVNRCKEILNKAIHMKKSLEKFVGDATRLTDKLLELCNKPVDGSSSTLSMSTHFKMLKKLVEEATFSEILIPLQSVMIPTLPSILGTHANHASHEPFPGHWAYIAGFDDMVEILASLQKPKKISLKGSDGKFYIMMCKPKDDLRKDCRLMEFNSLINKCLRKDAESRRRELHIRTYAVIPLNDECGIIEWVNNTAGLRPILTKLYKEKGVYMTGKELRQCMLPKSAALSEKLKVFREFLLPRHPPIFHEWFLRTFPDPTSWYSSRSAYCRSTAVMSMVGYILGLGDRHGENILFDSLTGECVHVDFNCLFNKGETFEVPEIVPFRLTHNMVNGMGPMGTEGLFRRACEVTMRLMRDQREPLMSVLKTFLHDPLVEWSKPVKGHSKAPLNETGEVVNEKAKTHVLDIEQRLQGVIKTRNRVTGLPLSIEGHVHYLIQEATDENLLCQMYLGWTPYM
Sequence (Q8WXE1 whole entry partner): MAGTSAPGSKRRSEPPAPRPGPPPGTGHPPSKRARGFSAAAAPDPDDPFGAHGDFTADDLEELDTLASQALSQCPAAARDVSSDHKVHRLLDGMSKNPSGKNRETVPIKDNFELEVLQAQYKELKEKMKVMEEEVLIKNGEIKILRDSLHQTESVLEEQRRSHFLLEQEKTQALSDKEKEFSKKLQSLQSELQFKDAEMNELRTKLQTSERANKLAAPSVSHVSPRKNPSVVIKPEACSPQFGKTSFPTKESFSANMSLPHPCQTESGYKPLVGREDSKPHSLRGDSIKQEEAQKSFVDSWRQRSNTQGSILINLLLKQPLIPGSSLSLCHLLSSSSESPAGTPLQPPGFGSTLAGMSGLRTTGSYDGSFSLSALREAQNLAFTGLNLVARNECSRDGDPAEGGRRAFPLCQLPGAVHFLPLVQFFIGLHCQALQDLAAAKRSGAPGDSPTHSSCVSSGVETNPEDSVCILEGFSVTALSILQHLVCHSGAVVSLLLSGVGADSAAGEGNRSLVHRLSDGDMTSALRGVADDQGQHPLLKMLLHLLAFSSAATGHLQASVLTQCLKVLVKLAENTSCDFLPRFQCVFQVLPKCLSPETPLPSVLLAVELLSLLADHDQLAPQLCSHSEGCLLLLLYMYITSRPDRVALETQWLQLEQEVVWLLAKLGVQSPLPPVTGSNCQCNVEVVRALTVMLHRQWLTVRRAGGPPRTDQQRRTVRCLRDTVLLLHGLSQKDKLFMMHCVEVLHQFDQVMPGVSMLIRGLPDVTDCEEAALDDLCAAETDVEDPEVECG
Assay: Eurofins ATR/ATRIP HTRF assay, p53 Ser15 phosphorylation
Details: ATP 10 μM
pEC50: −log10 of the molar value.
Respond with true (1) for pEC50 values of 7 and above, false (0) for values below.

Prompt: Record CN1CCN(CCS(=O)(=O)c2ccc(-c3cnc(N)c(C(=O)Nc4ccccc4)n3)cc2)CC1 [Compound 3] ; criterion: pEC50 no lower than 7. Met?
Response: false (0)

Prompt: Same question, CN(C)CCNS(=O)(=O)c1ccc(-c2cnc(N)c(C(=O)Nc3ccccc3)n2)cc1 [Compound 4] this time
Response: false (0)

Prompt: Same question, CC(CN(C)C)S(=O)(=O)c1ccc(-c2cnc(N)c(C(=O)Nc3ccccc3)n2)cc1 (stereo not drawn) [Compound 1] this time
Response: true (1)

Prompt: Same question, CN(C)CCC1CCN(CCS(=O)(=O)c2ccc(-c3cnc(N)c(C(=O)Nc4ccccc4)n3)cc2)CC1 [Compound 5] this time
Response: false (0)

Prompt: Same question, CCN(CC)C1CCN(CCS(=O)(=O)c2ccc(-c3cnc(N)c(C(=O)Nc4ccccc4)n3)cc2)CC1 [Compound 6] this time
Response: false (0)

----------
Target: ATR/ATRIP(h) (Homo sapiens (Human))
Assay: Eurofins ATR/ATRIP HTRF assay, p53 Ser15 phosphorylation
Format: biochemical
Conditions: ATP 10 μM; four parameter logistic fit
quantity name: Hill
Form rule: numeric answer, no unit written next to it.

Prompt: Quick one: Hill for CN1CCN(CCS(=O)(=O)c2ccc(-c3cnc(N)c(C(=O)Nc4ccccc4)n3)cc2)CC1 [Compound 3] ?
Response: −0.776

Prompt: Same question, CC(CN(C)C)S(=O)(=O)c1ccc(-c2cnc(N)c(C(=O)Nc3ccccc3)n2)cc1 (centres unmarked) [Compound 1] this time
Response: −0.772

Prompt: Same question, CCN(CC)CCS(=O)(=O)c1ccc(-c2cnc(N)c(C(=O)Nc3ccccc3)n2)cc1 [Compound 2] this time
Response: −0.911

Prompt: Same question, CN(C)CCC1CCN(CCS(=O)(=O)c2ccc(-c3cnc(N)c(C(=O)Nc4ccccc4)n3)cc2)CC1 [Compound 5] this time
Response: −0.819

Prompt: Same question, CCN(CC)C1CCN(CCS(=O)(=O)c2ccc(-c3cnc(N)c(C(=O)Nc4ccccc4)n3)cc2)CC1 [Compound 6] this time
Response: −0.768

----------
Molecular target: ARK5/NUAK1 (Homo sapiens (Human), UniProt O60285)
Sequence (O60285 whole entry): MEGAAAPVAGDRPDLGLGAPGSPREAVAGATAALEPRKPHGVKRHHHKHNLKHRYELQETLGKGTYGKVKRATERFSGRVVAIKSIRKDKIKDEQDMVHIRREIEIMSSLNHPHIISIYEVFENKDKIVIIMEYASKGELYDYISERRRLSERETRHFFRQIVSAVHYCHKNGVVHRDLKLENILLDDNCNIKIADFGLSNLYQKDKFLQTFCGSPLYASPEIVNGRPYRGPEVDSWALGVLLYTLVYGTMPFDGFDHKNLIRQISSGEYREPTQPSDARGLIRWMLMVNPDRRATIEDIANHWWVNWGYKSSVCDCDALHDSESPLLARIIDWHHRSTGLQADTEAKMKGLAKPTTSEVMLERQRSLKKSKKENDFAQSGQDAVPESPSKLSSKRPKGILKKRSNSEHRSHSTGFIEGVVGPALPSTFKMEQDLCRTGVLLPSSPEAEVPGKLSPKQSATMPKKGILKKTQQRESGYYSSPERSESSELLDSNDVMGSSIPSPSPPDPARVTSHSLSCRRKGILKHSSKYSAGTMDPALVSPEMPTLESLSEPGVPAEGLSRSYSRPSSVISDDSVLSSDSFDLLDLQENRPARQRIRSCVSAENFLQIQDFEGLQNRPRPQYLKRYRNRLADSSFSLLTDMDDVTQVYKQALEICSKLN
Experiment: Broad kinase panel screening
quantity name: pIC50
Entry type: numeric. Quantity: pIC50, the -log10 of concentration in molar units.

Prompt: Quick one: pIC50 for CN(C)CCC1CCN(CCS(=O)(=O)c2ccc(-c3cnc(N)c(C(=O)Nc4ccccc4)n3)cc2)CC1 [Compound 5] ?
Response: 7.77

----------
Molecular target: MLK3/MAP3K11 (Homo sapiens (Human), UniProt Q16584)
Sequence (Q16584 whole entry): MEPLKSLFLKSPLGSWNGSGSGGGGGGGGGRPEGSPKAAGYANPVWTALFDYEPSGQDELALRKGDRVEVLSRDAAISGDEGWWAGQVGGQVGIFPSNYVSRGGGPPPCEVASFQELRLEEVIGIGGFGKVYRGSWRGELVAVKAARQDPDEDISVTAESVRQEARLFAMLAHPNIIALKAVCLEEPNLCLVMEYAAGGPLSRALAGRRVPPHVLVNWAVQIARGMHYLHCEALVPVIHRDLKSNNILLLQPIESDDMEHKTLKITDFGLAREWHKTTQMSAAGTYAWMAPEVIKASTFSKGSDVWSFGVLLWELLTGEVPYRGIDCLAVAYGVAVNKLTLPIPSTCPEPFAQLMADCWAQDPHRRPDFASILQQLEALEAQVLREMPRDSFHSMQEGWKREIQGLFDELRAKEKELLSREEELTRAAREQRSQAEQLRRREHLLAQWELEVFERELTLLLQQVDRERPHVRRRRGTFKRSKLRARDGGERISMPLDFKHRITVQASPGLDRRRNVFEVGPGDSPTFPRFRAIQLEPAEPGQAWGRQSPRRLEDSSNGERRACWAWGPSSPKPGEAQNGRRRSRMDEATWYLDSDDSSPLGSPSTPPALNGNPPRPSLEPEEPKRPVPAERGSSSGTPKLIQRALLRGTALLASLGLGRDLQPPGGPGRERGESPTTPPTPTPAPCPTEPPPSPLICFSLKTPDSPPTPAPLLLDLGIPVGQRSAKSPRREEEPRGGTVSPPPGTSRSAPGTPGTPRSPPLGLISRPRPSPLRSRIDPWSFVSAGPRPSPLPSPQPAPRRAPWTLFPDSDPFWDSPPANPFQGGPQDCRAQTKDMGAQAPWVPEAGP
Assay: Broad kinase panel screening
Format: biochemical
Details: read-out: IC50 nM
quantity name: IC50 (nM)
Write the number in nM without appending the unit.

Prompt: Quick one: IC50 for CN(C)CCC1CCN(CCS(=O)(=O)c2ccc(-c3cnc(N)c(C(=O)Nc4ccccc4)n3)cc2)CC1 [Compound 5] ?
Response: 5.9

----------
Target: MLK2/MAP3K10 (Homo sapiens (Human))
Test: Broad kinase panel screening
quantity name: pIC50
Entry type: numeric. Quantity: pIC50, the -log10 of concentration in molar units.

Prompt: Quick one: pIC50 for CN(C)CCC1CCN(CCS(=O)(=O)c2ccc(-c3cnc(N)c(C(=O)Nc4ccccc4)n3)cc2)CC1 ?
Response: 8.02

----------
Target: ALK1/ACVRL1 (Homo sapiens (Human), UniProt P37023)
Assay: Broad kinase panel screening
quantity name: pIC50
Entry type: numeric. Quantity: pIC50, the -log10 of concentration in molar units.

Prompt: Quick one: pIC50 for CN(C)CCC1CCN(CCS(=O)(=O)c2ccc(-c3cnc(N)c(C(=O)Nc4ccccc4)n3)cc2)CC1 [Compound 5] ?
Response: 7.45

----------
Target: PIM1 (Homo sapiens (Human), UniProt P11309)
Test: Broad kinase panel screening
Format: biochemical
Conditions: read-out: IC50 nM
quantity name: IC50 (nM)
Write the number in nM without appending the unit.

Prompt: Quick one: IC50 for CN(C)CCC1CCN(CCS(=O)(=O)c2ccc(-c3cnc(N)c(C(=O)Nc4ccccc4)n3)cc2)CC1 [Compound 5] ?
Response: 72.6

----------
Test: Loading of ATR inhibitors into TEA-SOS liposomes and liposome characterization
Format: physicochemical
Conditions: TEA-SOS liposomes; input ratio before loading (Compound 1: 379)
quantity name: Drug/lipid ratio after loading

Prompt: Quick one: Drug/lipid ratio after loading for CCN(CC)C1CCN(CCS(=O)(=O)c2ccc(-c3cnc(N)c(C(=O)Nc4ccccc4)n3)cc2)CC1 ?
Response: 550 ± 64

Prompt: Same question, CN1CCN(CCS(=O)(=O)c2ccc(-c3cnc(N)c(C(=O)Nc4ccccc4)n3)cc2)CC1 this time
Response: 628 ± 6

Prompt: Same question, CN(C)CCC1CCN(CCS(=O)(=O)c2ccc(-c3cnc(N)c(C(=O)Nc4ccccc4)n3)cc2)CC1 this time
Response: 619 ± 110

Prompt: Same question, CCN(CC)CCS(=O)(=O)c1ccc(-c2cnc(N)c(C(=O)Nc3ccccc3)n2)cc1 this time
Response: 639 ± 22

Prompt: Same question, CC(CN(C)C)S(=O)(=O)c1ccc(-c2cnc(N)c(C(=O)Nc3ccccc3)n2)cc1 (centres unmarked) this time
Response: 369

----------
Assay: Loading of ATR inhibitors into TEA-SOS liposomes and liposome characterization
Assay type: physicochemical
Conditions: TEA-SOS liposomes; Compound 1 at ratio before loading 379
For each entry below, report its Loading efficiency (%) value.
Write the number in % without appending the unit.

Prompt: Quick one: Loading efficiency (%) for CN1CCN(CCS(=O)(=O)c2ccc(-c3cnc(N)c(C(=O)Nc4ccccc4)n3)cc2)CC1 [Compound 3] ?
Response: 97

Prompt: Same question, CC(CN(C)C)S(=O)(=O)c1ccc(-c2cnc(N)c(C(=O)Nc3ccccc3)n2)cc1 (centres unmarked) [Compound 1] this time
Response: 98

Prompt: Same question, CN(C)CCC1CCN(CCS(=O)(=O)c2ccc(-c3cnc(N)c(C(=O)Nc4ccccc4)n3)cc2)CC1 [Compound 5] this time
Response: 84

Prompt: Same question, CCN(CC)CCS(=O)(=O)c1ccc(-c2cnc(N)c(C(=O)Nc3ccccc3)n2)cc1 [Compound 2] this time
Response: 100

Prompt: Same question, CCN(CC)C1CCN(CCS(=O)(=O)c2ccc(-c3cnc(N)c(C(=O)Nc4ccccc4)n3)cc2)CC1 [Compound 6] this time
Response: 74

----------
For each entry below, report its Top value.
Molecular target: ATR/ATRIP(h) (Homo sapiens (Human))
Test: Eurofins ATR/ATRIP HTRF assay, p53 Ser15 phosphorylation
Assay type: biochemical
Set-up: key: % of DMSO positive control activity
Settings: ATP 10 μM; four parameter logistic fit of % control activity

Prompt: Quick one: Top for CN(C)CCC1CCN(CCS(=O)(=O)c2ccc(-c3cnc(N)c(C(=O)Nc4ccccc4)n3)cc2)CC1 ?
Response: 95

Prompt: Same question, CN1CCN(CCS(=O)(=O)c2ccc(-c3cnc(N)c(C(=O)Nc4ccccc4)n3)cc2)CC1 this time
Response: 98

Prompt: Same question, CC(CN(C)C)S(=O)(=O)c1ccc(-c2cnc(N)c(C(=O)Nc3ccccc3)n2)cc1 (centres unmarked) this time
Response: 95

Prompt: Same question, CCN(CC)C1CCN(CCS(=O)(=O)c2ccc(-c3cnc(N)c(C(=O)Nc4ccccc4)n3)cc2)CC1 this time
Response: 101

Prompt: Same question, CCN(CC)CCS(=O)(=O)c1ccc(-c2cnc(N)c(C(=O)Nc3ccccc3)n2)cc1 this time
Response: 94
